tested on: H2, S2, and SC cells; assay: in vitro
The threshold is 80%. Values of min viability beneath it are tagged satisfied; values meeting or exceeding it are tagged not satisfied.

In the record for CNC(=O)c1cc(Oc2ccc(NC(=O)Nc3cc(C(C)(C)C)nn3-c3ccc4ncccc4c3)c(F)c2)ccn1 [Rebastinib (DCC-2036)] , is min viability less than 80%?
satisfied

In the record for Cc1cccc(Nc2nc(N[C@@H]3CCCC[C@@H]3N)ncc2C(N)=O)c1 [PRT-060318] , is min viability less than 80%?
not satisfied

In the record for Clc1ccc(C[n+]2cc(-c3ccccc3)n3c2CCCCC3)c(Cl)c1.[Br-] [MLS000420216] , is min viability less than 80%?
not satisfied

In the record for Cn1cc(-c2cnn3c(N)c(Br)c([C@H]4CCCNC4)nc23)cn1 [Compound 891494-64-7] , is min viability less than 80%?
not satisfied

In the record for Cc1cnc(NC(=O)CN2CCN(c3ccccn3)CC2)s1 [MLS000035284] , is min viability less than 80%?
satisfied

In the record for CN(c1ccccc1CNc1nc(Nc2ccc3c(c2)CC(=O)N3)ncc1C(F)(F)F)S(C)(=O)=O [PF-431396] , is min viability less than 80%?
satisfied

In the record for S=C(NCCCN1CCOCC1)N1CCN(c2nc(-c3ccccc3)cs2)CC1 [MLS000706289] , is min viability less than 80%?
not satisfied

====

tested on: CMV-luc; experiment: Secondary assays, Bright-Glo luciferase in SC cells; assay type: cell-based; details: minimum CMV-luc luciferase in SC cells over 12 doses
The threshold is 70%. Values of min SC luc beneath it are tagged Fulfilled; values meeting or exceeding it are tagged Not fulfilled.

// below: answered compounds
C[C@@]12OC(=O)[C@]1([C@@H](O)[C@@H]1C=CCCC1)NC(=O)[C@@H]2CCCl | Not fulfilled
CC[C@@H](CO)Nc1nc(NCc2ccccc2)c2ncn(C(C)C)c2n1 | Not fulfilled
S=C(NCc1ccc2c(c1)OCO2)N1CCN(c2ncnc3c2oc2ccccc23)CC1 | Not fulfilled
N[C@@H](Cc1ccc(N(CCCl)CCCl)cc1)C(=O)O | Not fulfilled
CN(c1ccccc1CNc1nc(Nc2ccc3c(c2)CC(=O)N3)ncc1C(F)(F)F)S(C)(=O)=O | Not fulfilled

In the record for Cn1cc(-c2cnn3c(N)c(Br)c([C@H]4CCCNC4)nc23)cn1 , is min SC luc less than 70%?
Not fulfilled

In the record for C[C@@H](Oc1ccc2[nH]nc(/C=C/c3cnn(CCO)c3)c2c1)c1c(Cl)cncc1Cl , is min SC luc less than 70%?
Fulfilled

In the record for CCc1c(O)cc(O)c(C(=O)c2ccc(OCCN3CCOCC3)c(OC)c2)c1CC(=O)N(CCOC)CCOC , is min SC luc less than 70%?
Not fulfilled

In the record for CCNC(=O)c1noc(-c2cc(C(C)C)c(O)cc2O)c1-c1ccc(CN2CCOCC2)cc1 , is min SC luc less than 70%?
Fulfilled

====

tested on: ATXN2-luc; conditions: Table 5S; pilot screen, H2 cells, 10 μM
The threshold is -6 SD. Values of SD from Mean beneath it are tagged Criterion met; values meeting or exceeding it are tagged Criterion not met.

// below: answered compounds
CCN(CC)CCCCCCCCOC(=O)c1cc(OC)c(OC)c(OC)c1 | Criterion not met
CC(=O)Oc1cccc(O)c1 [RESORCINOL MONOACETATE] | Criterion met
C[C@H]1O[C@@H](O[C@H]2[C@@H](O)C[C@H](O[C@H]3[C@@H](O)C[C@H](O[C@H]4CC[C@@]5(C)[C@H](CC[C@@H]6[C@@H]5CC[C@]5(C)[C@@H](C7=CC(=O)OC7)CC[C@]65O)C4)O[C@@H]3C)O[C@@H]2C)C[C@H](O)[C@@H]1O | Criterion not met
O=c1[nH]c(=O)n([C@H]2C[C@H](O)[C@@H](CO)O2)cc1C(F)(F)F | Criterion not met

In the record for CC[C@H]1CN2CCc3cc(OC)c(OC)cc3[C@@H]2C[C@@H]1C[C@H]1NCCc2cc(O)c(OC)cc21.Cl.Cl.O.O.O.O.O.O.O [Cephaeline dihydrochloride heptahydrate] , is SD from Mean less than -6 SD?
Criterion not met
